Item-by-item account of exon inclusion enrichment index
B1: mRNA-splicing (parent)
chain: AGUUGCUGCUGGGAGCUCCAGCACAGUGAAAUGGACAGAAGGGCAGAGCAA

- Variants of: B1
- Measurement Description: exon inclusion enrichment index; higher = more inclusion; WT1 exon 5 minigene, HEK293
Measured Attribute: exon inclusion enrichment index

| Sequence String | Measured Attribute | Reported Result |
| --- | --- | --- |
| AGUUCUUCUCGGGAGCUCCAGCACAGUGAAAUGGACAGAAGGCUAGAGCAA [G5C C6U G8C C9U U10C G43C C44U] | exon inclusion enrichment index | 1.6 |
| AGUUGACGACGGGAGCUCCUUCACAGUGAAAUGGACAGAAGGGCAGAGCAA [C6A U7C C9A U10C A20U G21U] | exon inclusion enrichment index | 2.83 |
| AGUUACCACCGGUCGCUCCAGCACAGUGAAAUGGACAGAAGGGCAGAGCAA [G5A U7C G8A U10C G13U A14C] | exon inclusion enrichment index | 1.41 |
| AGUUACAGCCGGGAGCUCCAGCACAGUGAAAUGGACAGAAGGGCAGAGCAA [G5A U7A U10C] | exon inclusion enrichment index | 1.84 |
| AGUUGAAGAAGGGAGCUCCAGCACAGUGAAAUGGACAGGCGGGCAGAGCAA [C6A U7A C9A U10A A39G A40C] | exon inclusion enrichment index | 1.22 |
| AGUUAUAUAUGGGAGCUCCAGCACAUUGAAAUGGACAGAAGGGCAGAGCAA [G5A C6U U7A G8U C9A G26U] | exon inclusion enrichment index | 0.0898 |
| AGUCAAAGAAGGGAGCUCCAGCACAGUGAAAUGGACAGAAGGGCAGAGCAA [U4C G5A C6A U7A C9A U10A] | exon inclusion enrichment index | 0.662 |
| AGUUCUUCUCGGGAGCUCCAGCACCAUGAAAUGGACAGAAGGGCAGAGCAA [G5C C6U G8C C9U U10C A25C G26A] | exon inclusion enrichment index | 3.25 |
| AGUUGCUGCUGGCUGCUCCAGCACAGUGAAAUGGACAGAAGGGCAGAGCAA [G13C A14U] | exon inclusion enrichment index | 0.194 |
| AGUUGAAGAAGGGAGCUCCAGCACAGUAGAAUGGACAGAAGGGCAGAGCAA [C6A U7A C9A U10A G28A A29G] | exon inclusion enrichment index | 0.227 |
| AGUUAUAUAUGGGAGCUCACGCACAGUGAAAUGGACAGAAGGGCAGAGCAA [G5A C6U U7A G8U C9A C19A A20C] | exon inclusion enrichment index | 0.0154 |
| AGUUCACACAGGGAGCUCCAGCAGGGUGAAAUGGACAGAAGGGCAGAGCAA [G5C C6A U7C G8A U10A C24G A25G] | exon inclusion enrichment index | 0.034 |
| AGUUCACACAGGGAGCUCCAGCACAGUGAAAUGGACAGAAUGGCAGAGCAA [G5C C6A U7C G8A U10A G41U] | exon inclusion enrichment index | 0.102 |
| AGUAACCACCGGGAGCUCCAGCACAGUGAAAUGGACAGAAGGGCAGAGCAA [U4A G5A U7C G8A U10C] | exon inclusion enrichment index | 2 |
| AGUUGCUGCUGGGAGCUCCAGCUCAGUGAAAUGGACAGAAGGGCAGAGCAA [A23U] | exon inclusion enrichment index | 0.475 |
| AGUUCGCGCCGGGAGCUCAGGCACAGUGAAAUGGACAGAAGGGCAGAGCAA [G5C C6G U7C U10C C19A A20G] | exon inclusion enrichment index | 0.953 |
| AGUUCUUCUCGGGAGCUCCAGCACGCUGAAAUGGACAGAAGGGCAGAGCAA [G5C C6U G8C C9U U10C A25G G26C] | exon inclusion enrichment index | 3.56 |
| AGUUGAAGAAGGGAGCUCCAGCACAGUGAAAUGCGCAGAAGGGCAGAGCAA [C6A U7A C9A U10A G34C A35G] | exon inclusion enrichment index | 0.484 |
| AGUUGAAGAAGGGAGCUCCAGCACAGUGAAAUGGACAGAAUUGCAGAGCAA [C6A U7A C9A U10A G41U G42U] | exon inclusion enrichment index | 0.717 |
| AGUUGACGACGGGAGCUCACGCACAGUGAAAUGGACAGAAGGGCAGAGCAA [C6A U7C C9A U10C C19A A20C] | exon inclusion enrichment index | 2.73 |
| AGAACACACAGGGAGCUCCAGCACAGUGAAAUGGACAGAAGGGCAGAGCAA [U3A U4A G5C C6A U7C G8A U10A] | exon inclusion enrichment index | 0.0877 |
| AGUUAGGGAUGGGAGCUCCAUCACAGUGAAAUGGACAGAAGGGCAGAGCAA [G5A C6G U7G C9A G21U] | exon inclusion enrichment index | 0.00149 |
